This section presents molecules with their documented pEC50 values.
System: Leishmania donovani axenic amastigote parasites
PROCEDURE_TEXT: Leishmania donovani axenic amastigote proliferation assay (Cell TiterGlo luminescence, 2 day incubation)
Type: cell-based
REPORTED_CONDITIONS: Leishmania donovani, L. donovani axenic amastigotes; read-out: L. donovani amastigotes EC50
On this scale, pEC50 is minus log10 of a concentration expressed in M (mol/L).

These solved cases illustrate the format of a correct answer.
>  <MOLECULE>
Cc1nc(C)c(C(=O)Nc2ccc(F)c(-c3cn4cc(-c5ccc(F)nc5)cnc4n3)c2)o1 [Compound 436]

>  <VALUE_OBSERVED>
7.11

$$$$
>  <MOLECULE>
O=C(Nc1ccc(F)c(-c2cn3cc(C4CC4)cnc3n2)c1)C1COCCO1 (centres unmarked) [Compound 600]

>  <VALUE_OBSERVED>
5.83

$$$$
>  <MOLECULE>
Cc1nc(C)c(C(=O)Nc2ccc(F)c(-c3cn4cc(NC5=NCC(C)(C)O5)cnc4n3)c2)o1 [Compound 507]

>  <VALUE_OBSERVED>
5.73

$$$$
>  <MOLECULE>
Cc1nc(C)c(C(=O)Nc2ccc(F)c(-c3cn4cc(N(C)C)cnc4n3)c2)o1 [Compound 470]

>  <VALUE_OBSERVED>
6.60

$$$$
>  <MOLECULE>
CN(C)c1cnc2nc(-c3cc(NC(=O)N4CC(F)(F)C4)ccc3F)cn2c1 [Compound 466]

>  <VALUE_OBSERVED>
6.80

$$$$

Short answer for CC(C)Nc1cnc2nc(-c3cc(NC(=O)N4CCCC4)ccc3F)cn2c1 [Compound 476] : pEC50 was 6.82

Sure, the documented pEC50 for COC(=O)CN1CCC(c2cnc3nc(-c4cc(NC(=O)c5oc(C)nc5C)ccc4F)cn3c2)CC1 [Compound 539] is 6.01

The molecule listed as O=C(Nc1ccc(F)c(-c2cn3cc(-c4cccnc4)cnc3n2)c1)N1CC[C@@H](F)C1 [Compound 408] shows pEC50 equal to 7.11

Note to self: pEC50 recorded for Cc1nc(C)c(C(=O)Nc2ccc(F)c(-c3cn4cc(-c5ccnn5C(C)C)cnc4n3)c2)o1 [Compound 390] was 7.28

Query Cc1nc(C)c(C(=O)Nc2ccc(F)c(-c3cn4cc(C#CCCN5CCN(C)CC5)cnc4n3)c2)o1 [Compound 546] yields pEC50 of 5.25

----------
Test system: Leishmania donovani axenic amastigote parasites
PROCEDURE_TEXT: Leishmania donovani axenic amastigote proliferation assay (Cell TiterGlo luminescence, 2 day incubation)
Type: cell-based
REPORTED_CONDITIONS: Leishmania donovani, L. donovani axenic amastigotes; read-out: L. donovani amastigotes EC50
The entries below come with measured EC50 values attached.
Quick note: give the figure in nM, leave out the unit.

>  <STRUCTURE_SMILES>
COC(=O)Nc1ccc(F)c(-c2cn3cc(Br)cnc3n2)c1

>  <EC50 / nM>
4590

$$$$
>  <STRUCTURE_SMILES>
Cc1nc(C)c(C(=O)Nc2ccc(F)c(-c3cn4cc(Nc5ncccc5C(F)(F)F)cnc4n3)c2)o1

>  <EC50 / nM>
32

$$$$
>  <STRUCTURE_SMILES>
Cc1nc(C)c(C(=O)N(c2ccc(F)c(-c3cn4cc(OC(C)C)cnc4n3)c2)C(C)C)o1

>  <EC50 / nM>
9400

$$$$
>  <STRUCTURE_SMILES>
Cc1nc(C)c(C(=O)Nc2ccc(F)c(-c3cn4cc(C#CCCN5CCOCC5)cnc4n3)c2)o1

>  <EC50 / nM>
4040

$$$$
>  <STRUCTURE_SMILES>
Cc1nc(C)c(C(=O)Nc2ccc(F)c(-c3cn4cc(C5CCN(C(=O)OC(C)(C)C)CC5)cnc4n3)c2)o1

>  <EC50 / nM>
140

$$$$
>  <STRUCTURE_SMILES>
COC(=O)c1cnc2nc(-c3cc(NC(=O)c4oc(C)nc4C)ccc3F)cn2c1

>  <EC50 / nM>
651

$$$$

Consider the additional compound presented here.
Note to self: EC50 recorded for Cc1ncc(C(=O)Nc2ccc(F)c(-c3cn4cc(C5CCOCC5)cnc4n3)c2)o1 was 56

----------
Tested on: Trypanosoma brucei Lister 427 strain, bloodstream form
PROCEDURE_TEXT: Assay for proliferation of kinetoplastid parasite Trypanosoma brucei (Cell Titer Glo, 48 hours)
Format: cell-based
REPORTED_CONDITIONS: Trypanosoma brucei, T. brucei Lister 427 bloodstream form; read-out: T. brucei EC50
pEC50: −log10 of the molar value.
Category | rule: reported pEC50 within range, see low (below 6), moderate (6 to below 7), high (7 or more)

>  <STRUCTURE_SMILES>
CN(C(=O)N1CCCC1)c1ccc(F)c(-c2cn3cc(N)cnc3n2)c1

>  <CATEGORY_LABEL>
low

$$$$
>  <STRUCTURE_SMILES>
Cc1nc(C)c(C(=O)Nc2ccc(F)c(-c3cn4cc(NC5=N[C@H]6CCCC[C@@H]6O5)cnc4n3)c2)o1

>  <CATEGORY_LABEL>
low

$$$$
>  <STRUCTURE_SMILES>
Cc1nc(C)c(C(=O)Nc2ccc(F)c(-c3cn4cc(C5=CCN(Cc6ccccc6)CC5)cnc4n3)c2)o1

>  <CATEGORY_LABEL>
high

$$$$
>  <STRUCTURE_SMILES>
Cc1nc(C)c(C(=O)N(C)c2ccc(F)c(-c3cn4cc(N(C)C(=O)OC(C)C)cnc4n3)c2)o1

>  <CATEGORY_LABEL>
low

$$$$
>  <STRUCTURE_SMILES>
Cc1ncc(C(=O)Nc2ccc(F)c(-c3cn4cc(C(C)C)cnc4n3)c2)o1

>  <CATEGORY_LABEL>
high

$$$$
>  <STRUCTURE_SMILES>
CC(C)c1cnc2nc(-c3cc(NC(=O)N4CC[C@@H](F)C4)ccc3F)cn2c1

>  <CATEGORY_LABEL>
high

$$$$

q: Which class does CN(C)c1cnc2nc(-c3cc(NC(=O)N4CC[C@@H](F)C4)ccc3F)cn2c1 fall in?
a: high

q: Class? Entry: CC(C)c1cnc2nc(-c3cc(NC(=O)N4CC(F)(F)C4)ccc3F)cn2c1
a: high

q: Which class does Cc1nc(C)c(C(=O)Nc2ccc(F)c(-c3cn4cc(NCc5ncc[nH]5)cnc4n3)c2)o1 fall in?
a: low

q: Would you mind sorting Cc1cccnc1-c1cnc2nc(-c3cc(N)ccc3F)cn2c1 into the appropriate category?
a: low

q: // return the class label for Cc1nc(C)c(C(=O)Nc2ccc(F)c(-c3cn4cc(NC5=NCC(C)(C)N5)cnc4n3)c2)o1
a: low

q: Could you place CCCNc1cnc2nc(-c3cc(NC(=O)N4CCCC4)ccc3F)cn2c1 in its proper category? Many thanks.
a: moderate

q: For the record Cc1nc(C)c(C(=O)Nc2ccc(F)c(-c3cn4cc(N5CCC[C@@H]5C(F)(F)F)cnc4n3)c2)o1 , report the class its pEC50 corresponds to.
a: moderate

----------
System: Trypanosoma brucei Lister 427 strain, bloodstream form
PROCEDURE_TEXT: Assay for proliferation of kinetoplastid parasite Trypanosoma brucei (Cell Titer Glo, 48 hours)
Assay type: cell-based
REPORTED_CONDITIONS: Trypanosoma brucei, T. brucei Lister 427 bloodstream form; read-out: T. brucei EC50
Class key for EC50 values: bin 0 (below 70 nM), bin 1 (70 nM to below 500 nM), bin 2 (500 nM or more)

>  <MOLECULE>
Cc1nc(C)c(C(=O)Nc2ccc(F)c(-c3cn4cc(-c5ncccc5F)cnc4n3)c2)o1 [Compound 449]

>  <CATEGORY_LABEL>
bin 0

$$$$

q: Would you mind sorting O=C(Nc1ccc(F)c(-c2cn3cc(C4CC4)cnc3n2)c1)[C@H]1CC[C@@H](O)CC1 [Compound 598] into the appropriate category?
a: bin 2

q: For the record Cc1nc(C)c(C(=O)Nc2ccc(F)c(-c3cn4cc(-c5ccc(NC(C)C)cc5)cnc4n3)c2)o1 [Compound 380] , report the class its EC50 corresponds to.
a: bin 2

q: Sort into band: Cc1nc(C)c(C(=O)Nc2ccc(F)c(-c3cn4cc(N5C[C@@H](C)O[C@@H](C)C5)cnc4n3)c2)o1 [Compound 491]
a: bin 1

q: Which of the defined bands does the recorded EC50 of Cc1nc(C)c(C(=O)Nc2ccc(F)c(-c3cn4cc(-c5ccc(CCO)cn5)cnc4n3)c2)o1 [Compound 585] sit within?
a: bin 1

q: Lab note: sort Cc1nc(C)c(C(=O)Nc2ccc(F)c(-c3cn4cc(NCc5c[nH]cn5)cnc4n3)c2)o1 [Compound 480] into the matching EC50 band.
a: bin 2

q: Determine which band this molecule sits in: Cc1nc(C)c(C(=O)Nc2ccc(F)c(-c3cn4cc(-c5cnn(CCN6CCOCC6)c5)cnc4n3)c2)o1 [Compound 388]
a: bin 1

q: Form: Item = Cc1nc(C)c(C(=O)Nc2ccc(F)c(-c3cn4cc(Nc5ncccc5C(F)(F)F)cnc4n3)c2)o1 [Compound 488] ; Class = ?
a: bin 0
